Reference for the values: the supplement of paper PMC13380429

system: Caco-2; experiment: cell viability relative to DMSO; higher = less toxic; details: 72 h; 100 nM
Reported cell viability values for a set of molecules

molecule | cell viability [%]
COc1ccc(C(=O)NCc2ccc(OCCN(C)C)cc2)cc1OC [itopride] | 108
Cc1nc2ccccc2n1Cc1ccc(Cl)cc1 [chlormidazole] | 109
CC[C@H]1OC(=O)[C@H](C)C(=O)[C@H](C)[C@@H](O[C@@H]2O[C@H](C)C[C@H](N(C)C)[C@H]2O)[C@](C)(OC)C[C@@H](C)C(=O)[C@H](C)[C@H]2N(CCCCn3cnc(-c4cccnc4)c3)C(=O)O[C@]12C [telithromycin] | 100
Ic1cc(-c2ccccc2)ncn1 [4-iodo-6-phenylpyrimidine] | 104
O=C(NNc1ccccc1)c1ccncc1 [plurisin-1] | 105
CN(c1ccc(NC(=O)Nc2ccccc2)cc1)S(=O)(=O)c1cnn(-c2ccc(F)cc2)c1 [BTT-3033] | 96.3
Cc1ccccc1CN1C2=NCCN2C(=O)C2=C1CCN(Cc1ccccc1)C2 [TIC10] | 104
CC1(C)CC[C@]2(C(=O)O)CC[C@]3(C)C(=CC[C@@H]4[C@@]5(C)CC[C@H](O)C(C)(C)[C@@H]5CC[C@]43C)[C@@H]2C1 [oleanolic-acid] | 93
CC(C)(C)c1ccc(S(=O)(=O)/C=C/C#N)cc1 [BAY-11-7085] | 83.6
O=C(O)CCc1ccc(NCc2cccc(Oc3ccccc3)c2)cc1 [GW-9508] | 102
O=C(O[C@H]1CN2CCC1CC2)N(Cc1cc(F)c(F)c(F)c1)c1cccc(F)c1 [tarafenacin] | 91.3
Nc1nc(NC[C@H]2CC[C@H](CNS(=O)(=O)c3cccc4ccccc34)CC2)nc2ccccc12 | 93.8
CC(C)c1nnc(-c2ccc(-c3ccccc3)nc2)n1-c1cccc2nonc12 [ASP-2535] | 96.4
C[C@H]1C[C@@H]2[C@H]([C@@H](O)C[C@@]3(C)[C@H]2CC[C@]3(O)C(=O)COC(=O)CCC(=O)O)[C@@]2(C)C=CC(=O)C=C12 [methylprednisolone-sodium-succinate] | 98.3
O=C(C[S+]([O-])Cc1ccco1)NC/C=C\COc1cc(CN2CCCCC2)ccn1 (stereo unspecified) [lafutidine] | 97.6
CC(CCc1ccc(O)cc1)NCC(O)c1ccc(O)cc1 (stereo unspecified) [ractopamine] | 104

----------
tested on: Calu-3; assay: cell viability relative to DMSO; higher = less toxic; details: 72 h; 1000 nM
Counter-ions that a name gives are not always drawn.

compound | cell viability, %
CC(C)OC(=O)OCOP(=O)(CO[C@H](C)Cn1cnc2c(N)ncnc21)OCOC(=O)OC(C)C | 95.4
CCc1c(-c2ccccc2)c(-c2ccccc2)nn1-c1ccccc1-c1cccc(OCC(=O)O)c1 | 94
CC1(C)[C@@H](O)CC[C@]2(C)[C@H]3C(=O)C=C4[C@@H]5C[C@@](C)(C(=O)O)CC[C@]5(C)CC[C@@]4(C)[C@]3(C)CC[C@@H]12 | 105
Oc1c(Cl)cc(Cl)cc1Sc1cc(Cl)cc(Cl)c1O | 97.3
OCCN1CCN(CC/C=C2/c3ccccc3Sc3ccc(Cl)cc32)CC1 | 91.9
CC(C)(N)Cc1ccccc1 | 104
CN(Cc1cccc(-c2ccccc2)c1)C(=O)Oc1ccc(-c2ccc(C(N)=O)cc2)cc1 | 105
Cc1cc2nc3c(=O)[nH]c(=O)nc-3n(C[C@H](O)[C@H](O)[C@H](O)CO)c2cc1C | 107
CC(=O)N1CCN(CCOc2ccc(C3CCN(C4=Nn5c(nnc5C(F)(F)F)CC4)CC3)cc2)CC1 | 107
CC(C)CC(=O)Nc1n[nH]c2c1CN(C(=O)C1CCN(C)CC1)C2(C)C | 89.6
Oc1ncnc2[nH]ncc12 | 98
C[C@]12CC[C@H](O)C[C@H]1CC[C@@H]1[C@@H]2CC[C@]2(C)[C@@](O)(c3ccoc3)CC[C@]12O | 94.7
Cc1[nH]c(=O)c(C#N)cc1-c1ccc2nccn2c1 | 104
CNCCc1cnc[nH]1 [N-alpha-methylhistamine-dihydrochloride] | 109
O=c1n(CCCN2CCN(c3cccc(Cl)c3)CC2)nc2ccccn12 | 79.7
CCCCCCCCCCCCCCCC(=O)OC[C@H](COP(=O)([O-])OCC[N+](C)(C)C)OC(=O)CCCCCCCCCCCCCCC [colfosceril-palmitate] | 99.2
CC(C)(C#N)c1cc(Cn2cncn2)cc(C(C)(C)C#N)c1 | 116
C[C@]1(c2nc3c(C(N)=O)cccc3[nH]2)CCCN1 | 111
O=C(O)c1cc(N2N=C(C(F)(F)F)/C(=C/c3ccc(-c4ccccc4)o3)C2=O)ccc1Cl | 92.6
COc1cc2c(c(OC)c1OC)-c1c(cc3c(c1OC)OCO3)CC(C)C(C)C2 (stereo unspecified) | 105
Cc1cc(CCCOc2c(C)cc(-c3noc(C(F)(F)F)n3)cc2C)on1 | 90.3
C[C@](N)(Cc1ccc(O)cc1)C(=O)O | 97.3
CCCCOc1cc(C(=O)OCCN(CC)CC)ccc1N | 107
CNCCn1c(=O)c2cc(OC)c(OC)cc2c2cnc3cc4c(cc3c21)OCO4 | 46.3
COc1ccnc(C[S+]([O-])c2nc3cc(OC(F)F)ccc3[nH]2)c1OC (stereo unspecified) | 95.9
CC(=O)NCCCOc1ccc(C(=O)N2CCC(N3C(=O)CCc4ccccc43)CC2)cc1 | 86.9
CN1CCN(c2ncc(-c3cc(Cl)cc(Cl)c3Cl)c(N)n2)CC1 | 111
CCN(CC)C(=O)N[C@H]1C=C2c3cccc4[nH]cc(c34)C[C@H]2N(C)C1 [lisuride] | 85
C[C@]12CC[C@@H](O)C[C@@H]1CC[C@@H]1[C@@H]2CC[C@]2(C)C(c3ccccc3)=CC[C@@H]12 | 94.7
O=c1cc(-c2ccccc2)oc2cc(O)c(O)c(O)c12 | 103
CN(CC[C@@H](Oc1ccc(-c2ccccc2)cc1)c1ccc(F)cc1)CC(=O)O | 98.3
CCCCOc1ccc(-c2cncc(C(=O)NCc3cccnc3N3CCOCC3)c2)cc1Cl | 104
CCOC(=O)c1cnc2c(cnn2CC)c1NN=C(C)C [etazolate] | 94.3
CC(C(=O)O)c1ccc(N2Cc3ccccc3C2=O)cc1 (stereo unspecified) | 92.9
O=[N+]([O-])O[C@H]1CO[C@H]2[C@@H]1OC[C@H]2O[N+](=O)[O-] [isosorbide-dinitrate] | 101
O=C1CC(=O)c2c(Cl)c(Cl)c(Cl)c(Cl)c21 | 77.9

----------
tested on: U2OS; test: drug sensitivity score (DSS) for viability; higher = more toxic; extreme values may be limits of the assay; conditions: 72 h
Where a name gives a salt, the structure may show the parent alone.

compound | experimental_system | drug sensitivity score
COc1ccc(Cn2ccc3ccc(C(=O)NO)cc32)cc1 | U2OS | 1.6
CC[C@H]1OC(=O)[C@H](C)C(=O)[C@H](C)[C@@H](O[C@@H]2O[C@H](C)C[C@H](N(C)C)[C@H]2O)[C@](C)(OC)C[C@@H](C)C(=O)[C@H](C)[C@H]2N(CCCCn3cnc(-c4cccnc4)c3)C(=O)O[C@]12C | U2OS | 0
c1ccc(CCNc2nc(-c3ccccc3)cs2)cc1 | U2OS | 0
CC[C@@H](c1cccc(O)c1)[C@@H](C)CN(C)C [Tapentadol (hydrochloride)] | U2OS | 0
O=C(NC(=O)c1c(F)cccc1Cl)NC1c2ccccc2-c2ccccc21 | U2OS | 0
CC1(C)[C@@H](O)CC[C@]2(C)[C@H]3C(=O)C=C4[C@@H]5C[C@@](C)(C(=O)O)CC[C@]5(C)CC[C@@]4(C)[C@]3(C)CC[C@@H]12 | U2OS | 0
CN(C)c1ccc2nc3ccc(=[N+](C)C)cc-3sc2c1 | U2OS | 3
CC[C@H](Nc1ncnc2[nH]cnc12)c1nc2cccc(F)c2c(=O)n1-c1ccccc1 | U2OS | 0
CN1CCCC(CN2c3ccccc3Sc3ccccc32)C1 (stereo unspecified) | U2OS | 0
O=C(O[C@H]1CN2CCC1CC2)N(Cc1cc(F)c(F)c(F)c1)c1cccc(F)c1 | U2OS | 0
CCc1cc2c(s1)-n1c(C)nnc1CN=C2c1ccccc1Cl | U2OS | 0
CCc1c(-c2ccccc2)c(-c2ccccc2)nn1-c1ccccc1-c1cccc(OCC(=O)O)c1 | U2OS | 0
CC(C)(CO)[C@@H](O)C(=O)NCCC(=O)O | U2OS | 0
COc1ccc(-c2cc(=O)c3c(O)cc(O)cc3o2)cc1O | U2OS | 0
COc1cc2c(c(OC)c1OC)-c1ccc(OC)c(=O)cc1[C@@H](NC(C)=O)CC2 | U2OS | 23.9
O=C(O)C(=O)O.[NH-][C@@H]1CCCC[C@H]1[NH-].[Pt+2] | U2OS | 0.1
CN1C(C(=O)Nc2ccccn2)=C(O)c2sccc2S1(=O)=O | U2OS | 0
CC(C)(C)c1ccc(S(=O)(=O)/C=C/C#N)cc1 | U2OS | 7.4
CC1(C)CNc2cc(NC(=O)c3cccnc3NCc3ccncc3)ccc21 | U2OS | 0
N=C1NC(=O)/C(=C/c2ccc(O)cc2)S1 | U2OS | 0
Cn1c(=O)c2[nH]c(Br)nc2n(C)c1=O | U2OS | 0
Cc1cc2nc3c(=O)[nH]c(=O)nc-3n(C[C@H](O)[C@H](O)[C@H](O)CO)c2cc1C | U2OS | 0
CC(C)n1nc(-c2cc3cc(O)ccc3[nH]2)c2c(N)ncnc21 | U2OS | 9.8
COC(=O)Nc1nc2cc(Sc3ccccc3)ccc2[nH]1 | U2OS | 4.1
CCCn1cnc2c1c(=O)n(CCCCC(C)=O)c(=O)n2C | U2OS | 0
N#CC(c1ccc(Cl)cc1)c1c(Cl)cc(-n2ncc(=O)[nH]c2=O)cc1Cl (stereo unspecified) | U2OS | 0
NC(=O)c1ccc([N+](=O)[O-])cc1Cl [aklomide] | U2OS | 0
CCNC(=O)CC[C@H](N)C(=O)O | U2OS | 0
CCN(CC)CCOc1ccc(C(O)(Cc2ccc(Cl)cc2)c2ccc(C)cc2)cc1 (stereo unspecified) | U2OS | 1.3
CC(C(=O)O)c1ccc2c(c1)CC(=O)c1ccccc1S2 (stereo unspecified) | U2OS | 0
CC(=O)N[C@@H](C=O)[C@@H](O)[C@H](O)[C@H](O)CO | U2OS | 0
CC(=O)c1cc([N+](=O)[O-])c(Sc2cccc(Cl)c2Cl)s1 | U2OS | 2.4
CC(=O)OCC1=C(C(=O)O)N2C(=O)[C@@H](NC(=O)CS/C(=N/C(C)C)NC(C)C)[C@H]2SC1 | U2OS | 0
O=C(O[C@@H]1Cc2c(O)cc(O)cc2O[C@@H]1c1ccc(O)c(O)c1)c1cc(O)c(O)c(O)c1 [epicatechin-gallate-(-)] | U2OS | 0
Cc1nc2ccccc2n1Cc1ccc(Cl)cc1 | U2OS | 0
Oc1nc(O)c2cn[nH]c2n1 | U2OS | 0
